Tested on: Diabrotica balteata, (Corn root worm)
ASSAY: Diabrotica balteata maize sprout spray test, L2 larvae
Assay type: in vivo
STATED_CONDITIONS: 96 h, application rate of 200 ppm, 4 days after infestation, L2 larvae, read-out: mortality
Method: The pesticidal/insecticidal properties of the compounds according to embodiments 1 or 2 can be illustrated via the following tests: Spodoptera littoralis (Egyptian cotton leaf worm) • Cotton leaf discs were placed onto agar in 24-well microtiter plates and sprayed with aqueous test solutions prepared from 10'000 ppm DMSO stock solutions. […] The samples were assessed for mortality and growth inhibition in comparison to untreated samples 5 days after infestation. […]
Give mortality at 200 ppm for every item shown.

[[record]]
given_smiles = "Cn1nc(C(F)(F)C(F)(F)F)c(C(F)(F)F)c1-c1cc(-c2ccc(Cl)c(C(=O)NC3(C#N)CC3)c2)on1"
obs_value = "≥ 80%"

[[record]]
given_smiles = "Cn1nc(C(F)(F)C(F)(F)F)c(C(F)(F)F)c1-c1cc(-c2ccc(Cl)c(C(=O)NC3(C#N)CC3)c2)sn1"
obs_value = "≥ 80%"

[[record]]
given_smiles = "Cn1nc(C(F)(F)C(F)(F)F)c(C(F)(F)F)c1-c1cc(-c2ccc(Cl)c(C(=O)Nc3ccncc3)c2)on1"
obs_value = "≥ 80%"

[[record]]
given_smiles = "Cn1nc(C(F)(F)C(F)(F)F)c(C(F)(F)F)c1-c1cc(-c2ccc(Cl)c(C(=O)NC3CC3)c2)on1"
obs_value = "≥ 80%"

[[record]]
given_smiles = "Cn1nc(C(F)(F)C(F)(F)F)c(C(F)(F)F)c1-c1cc(-c2ccc(Cl)c(C(=O)N[C@H]3C[C@@H]3C(F)(F)F)c2)on1"
obs_value = "≥ 80%"


Please go through the list and note mortality at 200 ppm for each compound.
1. C#CCNC(=O)c1cc(-c2cc(-c3c(C(F)(F)F)c(C(F)(F)C(F)(F)F)nn3C)no2)ccc1Cl
2. Cn1nc(C(F)(F)C(F)(F)F)c(C(F)(F)F)c1-c1cc(-c2ccc(Cl)c(C(=O)NCC=C(Cl)Cl)c2)on1

(A)
["≥ 80%", "≥ 80%"]
